Data credit: the supplement of paper PMC7877785

test: self-splicing fitness, log relative to wild type (ln ratio); higher = more splicing; Tetrahymena group I intron in knt gene, E. coli kanamycin selection, DiMSum; sequences stand for … in CUCUCU…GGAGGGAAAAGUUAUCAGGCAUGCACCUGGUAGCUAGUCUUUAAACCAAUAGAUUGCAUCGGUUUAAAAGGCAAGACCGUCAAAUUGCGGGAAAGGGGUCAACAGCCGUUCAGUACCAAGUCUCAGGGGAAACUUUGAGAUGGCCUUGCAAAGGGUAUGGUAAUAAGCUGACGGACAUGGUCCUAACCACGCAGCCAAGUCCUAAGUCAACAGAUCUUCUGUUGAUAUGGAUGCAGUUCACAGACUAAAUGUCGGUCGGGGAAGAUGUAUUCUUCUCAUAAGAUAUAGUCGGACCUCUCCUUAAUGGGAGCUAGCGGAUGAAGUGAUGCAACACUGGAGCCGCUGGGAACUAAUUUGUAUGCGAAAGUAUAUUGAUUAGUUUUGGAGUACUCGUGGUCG; conditions: 37 °C;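 also: selection with 25 µg/mL kanamycin versus none on LB agar overnight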
test-readout: self-splicing fitness (ln)
Form: value (number only, do not type unit).

Here's what some known entries look like.
macromolecule-sequence: CGCCAGCAAUAUUACGAUAA
self-splicing fitness (ln): -2.78
//
macromolecule-sequence: GUGAAGCAAUAUUACGAAAU
self-splicing fitness (ln): -0.0167
//
macromolecule-sequence: GAGUAGCAAUAUUACGACUU
self-splicing fitness (ln): -2.63
//
macromolecule-sequence: GGGAAGCAAUAUUACGAUCG
self-splicing fitness (ln): -0.00218
//
macromolecule-sequence: GCUAAGCAAUAUUACGCUUG
self-splicing fitness (ln): -1.71
//
macromolecule-sequence: CUCUAGCAAUAUUACGCACU
self-splicing fitness (ln): -3.07

Next sequence, please.
## Task Value lookup for self-splicing fitness (ln); key = AUUUAGCAAUAUUACGGCGG
## Result -0.525

* * *

test: self-splicing fitness, log relative to wild type (ln ratio); higher = more splicing; Tetrahymena group I intron in knt gene, E. coli kanamycin selection, DiMSum; sequences stand for … in CUCUCU…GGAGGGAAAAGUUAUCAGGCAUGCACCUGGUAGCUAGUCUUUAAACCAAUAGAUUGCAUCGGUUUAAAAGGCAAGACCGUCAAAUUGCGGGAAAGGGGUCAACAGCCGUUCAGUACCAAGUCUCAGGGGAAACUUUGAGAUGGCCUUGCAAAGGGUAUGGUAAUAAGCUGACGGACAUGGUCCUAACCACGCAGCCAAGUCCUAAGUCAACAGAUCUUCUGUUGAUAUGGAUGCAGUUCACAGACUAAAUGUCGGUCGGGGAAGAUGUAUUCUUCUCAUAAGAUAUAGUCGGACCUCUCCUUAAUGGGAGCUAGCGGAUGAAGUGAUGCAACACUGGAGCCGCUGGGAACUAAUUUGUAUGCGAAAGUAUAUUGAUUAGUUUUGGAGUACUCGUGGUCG; details: 30 °C
Recorded self-splicing fitness (ln) for the following sequences
Form: value (number only, do not type unit).

Here's what some known entries look like.
macromolecule-sequence: AUAAAGCAAUAUUACGGUAG
self-splicing fitness (ln): -2.82
//
macromolecule-sequence: GCACAGCAAUAUUACGAGCA
self-splicing fitness (ln): -1.55

## Task Value lookup for self-splicing fitness (ln); key = GACAAGCAAUAUUACGGUCU
## Result -4.04

## Task Value lookup for self-splicing fitness (ln); key = GAUGAGCAAUAUUACGUGGA
## Result -2.47

## Task Value lookup for self-splicing fitness (ln); key = CCUGAGCAAUAUUACGCGAU
## Result -3.71

## Task Value lookup for self-splicing fitness (ln); key = UAAUAGCAAUAUUACGAACU
## Result -1.37

## Task Value lookup for self-splicing fitness (ln); key = GCUUAGCAAUAUUACGGAGU
## Result -2.9

## Task Value lookup for self-splicing fitness (ln); key = UGAAAGCAAUAUUACGUAGU
## Result -3.96

## Task Value lookup for self-splicing fitness (ln); key = AGCCAGCAAUAUUACGCGUG
## Result -1.91

## Task Value lookup for self-splicing fitness (ln); key = AAAAAGCAAUAUUACGGACC
## Result -0.351

## Task Value lookup for self-splicing fitness (ln); key = UACGAGCAAUAUUACGUAAC
## Result -4.91
